# Tested on: Mus musculus
# protocol-details: Antinociceptive effect in intrathecally dosed ICR-CD1 mouse assessed as drug tolerance development measured after 25 hrs by tail flick test
# Assay type: functional, organism-based
Calls of active or inactive are those of the source. The rule behind the calls is not given here.
Hello, when you answer, please use one of the following outcomes: Yes for active, No for inactive

Example entries begin here.
{"smiles-data": "O=C(N[C@@H]1CC[C@@]2(O)[C@H]3Cc4ccc(O)c5c4[C@@]2(CCN3CC2CC2)[C@H]1O5)c1cc2ccccc2o1", "label-class": "Yes"}
{"smiles-data": "O=C(N[C@@H]1CC[C@@]2(O)[C@H]3Cc4ccc(O)c5c4[C@@]2(CCN3CC2CC2)[C@H]1O5)c1c[nH]c2ccccc12", "label-class": "Yes"}
{"smiles-data": "O=C(N[C@@H]1CC[C@@]2(O)[C@H]3Cc4ccc(O)c5c4[C@@]2(CCN3CC2CC2)[C@H]1O5)c1cc2cc(F)ccc2[nH]1", "label-class": "No"}
{"smiles-data": "Cn1c(C(=O)N[C@@H]2CC[C@@]3(O)[C@H]4Cc5ccc(O)c6c5[C@@]3(CCN4CC3CC3)[C@H]2O6)cc2ccccc21", "label-class": "Yes"}

Query: Please indicate how the test categorized O=C(N[C@@H]1CC[C@@]2(O)[C@H]3Cc4ccc(O)c5c4[C@@]2(CCN3CC2CC2)[C@H]1O5)c1cc2ccccc2[nH]1 .
Reply: Yes

###

# study-target: Opioid receptors; delta & kappa (Homo sapiens) (UniProt P41145+P41143)
# Sequence (P41143 whole entry, looked up): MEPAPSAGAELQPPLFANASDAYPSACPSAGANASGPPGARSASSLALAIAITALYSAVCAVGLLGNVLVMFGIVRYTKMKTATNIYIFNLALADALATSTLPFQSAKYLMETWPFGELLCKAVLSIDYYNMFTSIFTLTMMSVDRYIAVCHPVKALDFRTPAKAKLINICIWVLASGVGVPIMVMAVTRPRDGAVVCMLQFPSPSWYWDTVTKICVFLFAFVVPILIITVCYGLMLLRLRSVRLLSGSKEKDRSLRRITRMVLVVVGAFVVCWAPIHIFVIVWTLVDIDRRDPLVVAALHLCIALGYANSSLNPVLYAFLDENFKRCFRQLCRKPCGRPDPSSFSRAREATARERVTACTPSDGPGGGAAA
# Sequence (P41145 whole entry, looked up): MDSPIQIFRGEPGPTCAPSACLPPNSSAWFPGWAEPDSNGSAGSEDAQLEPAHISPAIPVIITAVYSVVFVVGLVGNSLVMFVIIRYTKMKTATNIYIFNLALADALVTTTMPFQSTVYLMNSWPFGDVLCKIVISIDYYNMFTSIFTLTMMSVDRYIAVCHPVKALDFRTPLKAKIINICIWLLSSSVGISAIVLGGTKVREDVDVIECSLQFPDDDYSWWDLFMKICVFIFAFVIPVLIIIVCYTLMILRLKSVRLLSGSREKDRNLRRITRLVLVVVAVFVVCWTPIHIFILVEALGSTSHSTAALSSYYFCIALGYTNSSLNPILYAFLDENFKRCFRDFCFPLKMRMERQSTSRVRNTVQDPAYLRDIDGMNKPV
# protocol-details: Agonist activity at human delta-kappa opioid receptor expressed in HEK293 cells assessed as induction of intracellular calcium release by FLIPR assay
# Format: functional, cell-based
Calls of active or inactive are those of the source. The calls are words filed in the database; no cut-off is given here.
Hello, when you answer, please use one of the following outcomes: true (1) = active, false (0) = inactive

Query: Please indicate how the test categorized O=C(N[C@@H]1CC[C@@]2(O)[C@H]3Cc4ccc(O)c5c4[C@@]2(CCN3CC2CC2)[C@H]1O5)c1ccc2[nH]ccc2c1 .
Reply: true (1)

Query: Please indicate how the test categorized O=C(N[C@@H]1CC[C@@]2(O)[C@H]3Cc4ccc(O)c5c4[C@@]2(CCN3CC2CC2)[C@H]1O5)c1cc2ccccc2o1 .
Reply: true (1)

Query: Please indicate how the test categorized Cn1c(C(=O)N[C@@H]2CC[C@@]3(O)[C@H]4Cc5ccc(O)c6c5[C@@]3(CCN4CC3CC3)[C@H]2O6)cc2ccccc21 .
Reply: true (1)

Query: Please indicate how the test categorized O=C(N[C@@H]1CC[C@@]2(O)[C@H]3Cc4ccc(O)c5c4[C@@]2(CCN3CC2CC2)[C@H]1O5)c1c[nH]c2ccccc12 .
Reply: true (1)

Query: Please indicate how the test categorized O=C(N[C@@H]1CC[C@@]2(O)[C@H]3Cc4ccc(O)c5c4[C@@]2(CCN3CC2CC2)[C@H]1O5)c1cc2cc(Cl)ccc2[nH]1 .
Reply: true (1)

Query: Please indicate how the test categorized O=C(N[C@@H]1CC[C@@]2(O)[C@H]3Cc4ccc(O)c5c4[C@@]2(CCN3CC2CC2)[C@H]1O5)c1cc2ccccc2[nH]1 .
Reply: true (1)

Query: Please indicate how the test categorized O=C(N[C@@H]1CC[C@@]2(O)[C@H]3Cc4ccc(O)c5c4[C@@]2(CCN3CC2CC2)[C@H]1O5)c1cc2cc(F)ccc2[nH]1 .
Reply: false (0)

Query: Please indicate how the test categorized O=C(N[C@@H]1CC[C@@]2(O)[C@H]3Cc4ccc(O)c5c4[C@@]2(CCN3CC2CC2)[C@H]1O5)c1cc2ccccc2s1 .
Reply: true (1)
